// values below are reported MIC
- System: Staphylococcus aureus
- Measurement protocol: Antibacterial activity against Staphylococcus aureus ATCC […] after 18 to 24 hrs by twofold serial dilution method
- Format: functional
A number alone suffices; assume µg/mL.

{"columns": ["Molecule", "Target or test system", "Quantitative result"],
 "data": [
  ["CCO/N=C1\\CN(c2c(F)cc3c(=O)c(C(=O)O)cn(C4CC4)c3c2OC)CC1/C(N)=N\\OC (configuration not stated)", "Staphylococcus aureus", 0.5],
  ["CO/N=C1\\CN(c2c(F)cc3c(=O)c(C(=O)O)cn(C4CC4)c3c2OC(F)F)CC1/C(N)=N\\O (configuration not stated)", "Staphylococcus aureus", 0.125],
  ["CCO/N=C1\\CN(c2nc3c(cc2F)c(=O)c(C(=O)O)cn3C2CC2)CC1/C(N)=N\\OCC (configuration not stated)", "Staphylococcus aureus", 2],
  ["CCO/N=C1\\CN(c2c(F)cc3c(=O)c(C(=O)O)cn(C4CC4)c3c2OC)CC1/C(N)=N\\OCC (configuration not stated)", "Staphylococcus aureus", 0.5],
  ["CCO/N=C1\\CN(c2c(F)cc3c(=O)c(C(=O)O)cn(CCF)c3c2F)CC1/C(N)=N\\OC (configuration not stated)", "Staphylococcus aureus", 2]
]}

[in] Give the reported MIC for CCO/N=C1\CN(c2c(F)cc3c(=O)c(C(=O)O)cn4c3c2OC[C@@H]4C)CC1/C(N)=N\O (some centres not stated) (system: Staphylococcus aureus).
[out] 0.25

[in] Form: Entry = CCO/N=C1\CN(c2nc3c(cc2F)c(=O)c(C(=O)O)cn3-c2ccc(F)cc2F)CC1/C(N)=N\OCC (configuration not stated) | System = Staphylococcus aureus | MIC = ____
[out] 0.06

[in] Please provide the recorded MIC for CCO/N=C1\CN(c2c(F)cc3c(=O)c(C(=O)O)cn(C4CC4)c3c2OC(F)F)CC1/C(N)=N\OCC (configuration not stated) , tested on Staphylococcus aureus.
[out] 1

[in] Which measured MIC belongs to CCO/N=C1\CN(c2c(F)cc3c(=O)c(C(=O)O)cn4c3c2OC[C@@H]4C)CC1/C(N)=N\OC (some centres not stated) , tested on Staphylococcus aureus?
[out] 0.25

[in] Which measured MIC belongs to CCO/N=C(/N)C1CN(c2c(F)cc3c(=O)c(C(=O)O)cn(CC)c3c2F)C/C1=N\OC (configuration not stated) , tested on Staphylococcus aureus?
[out] 0.125

----------
- Test system: Staphylococcus aureus
- Measurement protocol: Antibacterial activity against Staphylococcus aureus ATCC […] after 18 to 24 hrs by twofold serial dilution method
- Type: functional
Below: a set of entries, each annotated with reported log10(MIC).
# values: log10(MIC), units µg/mL

{"columns": ["Molecule", "Quantity kind", "Quantitative result"],
 "data": [
  ["CCn1cc(C(=O)O)c(=O)c2cc(F)c(N3C/C(=N\\OC)C(/C(N)=N\\O)C3)c(F)c21 (stereo not drawn)", "log10(MIC)", -0.60],
  ["CO/N=C1\\CN(c2nc3c(cc2F)c(=O)c(C(=O)O)cn3-c2ccc(F)cc2F)CC1/C(N)=N\\OC (stereo not drawn)", "log10(MIC)", -0.30]
]}

[in] Please look up its log10(MIC): `C[C@H]1COc2c(N3CCN(C)CC3)c(F)cc3c(=O)c(C(=O)O)cn1c23.C[C@H]1COc2c(N3CCN(C)CC3)c(F)cc3c(=O)c(C(=O)O)cn1c23.O`
[out] -1.22

[in] Reported log10(MIC), molecule CCO/N=C1\CN(c2c(F)cc3c(=O)c(C(=O)O)cn(C4CC4)c3c2OC(F)F)CC1/C(N)=N\O (stereo not drawn) : ____
[out] -0.30

[in] I am curious: what log10(MIC) value has been reported for CO/N=C1\CN(c2c(F)cc3c(=O)c(C(=O)O)cn(CCF)c3c2F)CC1/C(N)=N\O (stereo not drawn) ?
[out] 0.00

[in] log10(MIC) for CCO/N=C1\CN(c2c(F)cc3c(=O)c(C(=O)O)cn(CC)c3c2F)CC1/C(N)=N\O (stereo not drawn) ?
[out] 0.00

[in] Name the reported log10(MIC) value associated with the molecule CO/N=C1\CN(c2nc3c(cc2F)c(=O)c(C(=O)O)cn3C2CC2)CC1/C(N)=N\O (stereo not drawn)
[out] 0.00

[in] Reported log10(MIC) for CCO/N=C(/N)C1CN(c2c(F)cc3c(=O)c(C(=O)O)cn4c3c2OC[C@@H]4C)C/C1=N\OC (stereo partly drawn) : what is it?
[out] -0.90
